// half-life lookup, one value per entry
- methodDescription: Determination of pharmacokinetic properties in the mouse (cassette dosing)
- Format: in vivo
- conditionInfo: female, SJL/N Tac, plasma, iv, i.v. administration, nominal dose 1 mg/kg/compound
- Description: Female mice (SJL/N Tac) were given a single intravenous or oral dose of a mixture of 4 or 6 compounds per cassette (nominal dose: 1 mg/kg/compound). The test items were formulated in physiological saline/5% Cremophor® to a final concentration of each 0.1 mg/mL. […] The dose formulations and plasma concentrations of each compound were determined by LC-MS/MS. The pharmacokinetic parameters were determined by non-compartmental analysis using WinNonlin Professional (version 4.0.1). […]
Response body: numeric value in h, unit text excluded.

compound | reportedResult
CC(=O)Nc1ccc(CCc2ccccc2)cc1C(=O)O [Compound AF, 2-Acetylamino-5-phenethyl-benzoic acid, reference compound] | 0.29
CCC(=O)Nc1ccc(OCc2ccccc2C(F)(F)F)cc1C(=O)O | 4.9

Prompt: For the compound CCC(=O)Nc1ccc(COc2ccccc2C(F)(F)F)cc1C(=O)O , what half-life is on record?
Completion: 1.5
